Origin of the recorded values: the supplement of paper PMC9170038

tested on: MS2 coat protein; assay: apparent KD of MS2 coat protein; designed switch direction (-1 OFF switch, 1 ON switch): 1; higher = weaker reporter binding; conditions: input ligand: none
// NO strictly below 100 nM in apparent KD of MS2 coat protein; YES otherwise

Query :: Form field: apparent KD of MS2 coat protein at least 100 nM? Entry: UGGUACAUGGGAGGAUAUGGGUUGAUGACAUGAGGAUCACCCAUGUUAAAUAUGCCGAGAGGCAACUAGAAGGCCCAUGUACCU [JL SSNG1 3.99] (Eterna round: R96, puzzle: Same State NG 2)
Result :: YES

Query :: Proceed to GUGGUCAGACAUGAGGAUCACCCAUGUGGAAUAAAUAACAGACAGGAUAUUUAAUAUAGGAUAUAAAAGAAGGGUCGAUUGGUG (Eterna round: R96, puzzle: Same State NG 3)
Result :: YES

Query :: Lookup UUGAAGAAUUAAGGAUAUCGAGUCGUCAAAUUAAACAUGAGGAUCACCCAUGUGGGUUGCGGUAUCGAGAAGGUAAAUUACUAG [JL JR Sub099 mod 4] (Eterna round: R96, puzzle: Same State NG 2)
Result :: NO

Query :: Now this one: UGACACACGGCAGGAUAUCCUUAGCAAAGCUAAGGAGAAGGGCCUCAUGUCGUGGAAACGUGACAUGAGGAUCACCCAUGUUGC [Omei SS(NG)1 Cv7] (Eterna round: R96, puzzle: Same State NG 1)
Result :: NO

Query :: Same question, UGUUGUAUUACAGGAUAUCUAUUAGUUUCAUUUAGAGAAGGGUAUUCACAUGAGGAUCACCCAUGUAUAUACGAGGAAGUUGUG [JMF's solution 95] (Eterna round: R96, puzzle: Same State NG 1) this time
Result :: NO

Query :: And AGGCUCAGACGAGGAUAUAUGUGGUCACAUGAGGAUCACCCAUGUCUCGAGCUUCGGCUCGAGGCAUAGAAGGCGUCUGAGCCA [SSNG2/5-A1] (Eterna round: R96, puzzle: Same State NG 2) ?
Result :: YES

Query :: Same read-out for UUAGUCAUGUAAGGAUAUGCAGCCGAAACGGCUGCAGAAGGUACUAUAAUUACAUGAGGAUCACCCAUGUUAUAAAAUAAAUAU [Mat - Same State NG 1 - JL mod - D63] (Eterna round: R96, puzzle: Same State NG 1) ?
Result :: NO

Query :: Same again, this time with AGUCCAGCCUGAGCUGGACAAAAGCAUGUACAUGAGGAUCACCCAUGUUCAUGUACAAGCUUUUUGCUCGUCUUUAA [salish99_208a_r3_096x] (Eterna round: R96, puzzle: Sensor for hsa-mir-208a)
Result :: YES

Query :: What about UAAAGAUCGCGAGGAUAUCGCGAGGAUCACCCGUGAGAAGGCGCAGAGCCGAGGAUCACCCGGCUGAUCCUGAGGAGGAGGUCU (Eterna round: R96, puzzle: Same State NG 1) ?
Result :: YES

---

For each entry below, report its apparent KD of K4 kissing-loop reporter value.
system: K4 kissing-loop RNA reporter; assay: apparent KD of K4 kissing-loop reporter; higher = weaker reporter binding; settings: Eterna round: R107; input ligand: theophylline 20 uM;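 also: bound reporter read as fluorescence of individual clusters on recovered sequencing chips by microscopy, with normalized cluster intensities fitted with a binding model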
Answer format: numeric, nM implied, no suffix.

Query :: May I ask what apparent KD of K4 kissing-loop reporter has been recorded for CCUGCGGCUUCCGGCGGGCCCGAUUUAUAAAAGGAUAUGUGCGUACACAGAAGGUUUAACGAGGGACCGAGAGUGAUGUUCUCCU [theeternabot_sameState_KL_FMN_A_33] ?
Result :: 370

Query :: Now this one: GGAUCCACCAGUGAUGUUGGAGUAAUCUCCAAGGAUAUGACGAAAGUCAGAAGGUGGUAAAUAGACGUCAAAGACGUCGGAUCCA [FmnA 22 #SwitchBubble #K4Early]
Result :: 234

Query :: Try this sequence next: CGAGUACAUUGCGAUACCAGCGAUAGCAGUUCAACGCGCAGUCCGUUUAGUGAUGUUAGACGCCCUUGGCAGCGCUUCCUGGCAA [theeternabot_exclusion_KL_Theo_B_44]
Result :: 520

Query :: Record: ACGUGCCCAGUGAUGUUGGAUAAAUAUGAAGGAGCGUGCGAAAGCACAGGUAGGUCGCAUAAUAGCACGAGCCACGAAAGUGGCA [#SwitchBubble 7 #K4Early #Sliding]
Result :: 245

Query :: Now the same for UGAUACCAGACGGCCGCCACUCUUGCAGUCAAAGACUGCUAAAAGGAAAUCGUCCAGUGAUGUUGGAGGACCGGGUCUGGUAUCU [TrypBX 15 #SwitchBubble #Palindromic #StaticStem]
Result :: 774
